Provenance of the data: the supplement of paper PMC11246515

# assay overview: total protein half-life in vivo (active degradation + dilution); higher = more stable protein
# run parameters: wild type E. coli NCM3722; growth: P-lim chemostat; doubling time 6 h

[
  {
    "item sequence": "MKHDHFVVQSPDKPAQQLLLLFHGVGDNPVAMGEIGNWFAPLFPDALVVSVGGAEPSGNPAGRQWFSVQGITEDNRQARVDAIMPTFIETVRYWQKQSGVGANATALIGFSQGAIMVLESIKAEPGLASRVIAFNGRYASLPETASTATTIHLIHGGEDPVIDLAHAVAAQEALISAGGDVTLDIVEDLGHAIDNRSMQFALDHLRYTIPKHYFDEALSGGKPGDDDVIEMM",
    "unit descriptor": "h",
    "total protein half-life in vivo": 4.46
  },
  {
    "item sequence": "MSALNKKSFLTYLKEGGIYVVLLVLLAIIIFQDPTFLSLLNLSNILTQSSVRIIIALGVAGLIVTQGTDLSAGRQVGLAAVVAATLLQSMDNANKVFPEMATMPIALVILIVCAIGAVIGLINGLIIAYLNVTPFITTLGTMIIVYGINSLYYDFVGASPISGFDSGFSTFAQGFVALGSFRLSYITFYALIAVAFVWVLWNKTRFGKNIFAIGGNPEAAKVSGVNVGLNLLMIYALSGVFYAFGGMLEAGRIGSATNNLGFMYELDAIAACVVGGVSFSGGVGTVIGVVTGVIIFTVINYGLTYIGVNPYWQYIIKGAIIIFAVALDSLKYARKK",
    "unit descriptor": "h",
    "total protein half-life in vivo": 5.49
  },
  {
    "item sequence": "MNKFEDIRGVAFDLDGTLVDSAPGLAAAVDMALYALELPVAGEERVITWIGNGADVLMERALTWARQERATQRKTMGKPPVDDDIPAEEQVRILRKLFDRYYGEVAEEGTFLFPHVADTLGALQAKGLPLGLVTNKPTPFVAPLLEALDIAKYFSVVIGGDDVQNKKPHPDPLLLVAERMGIAPQQMLFVGDSRNDIQAAKAAGCPSVGLTYGYNYGEAIDLSQPDVIYQSINDLLPALGLPHSENQESKND",
    "unit descriptor": "h",
    "total protein half-life in vivo": 4.14
  }
]

###

# assay overview: total protein half-life in vivo (active degradation + dilution); higher = more stable protein
# run parameters: E. coli NCM3722 delta-hslV; growth: N-lim chemostat; doubling time 6 h
endpoint label: total protein half-life in vivo (h)

[
  {
    "item sequence": "MSQVQSGILPEHCRAAIWIEANVKGEVDALRAASKTFADKLATFEAKFPDAHLGAVVAFGNNTWRALSGGVGAEELKDFPGYGKGLAPTTQFDVLIHILSLRHDVNFSVAQAAMEAFGDCIEVKEEIHGFRWVEERDLSGFVDGTENPAGEETRREVAVIKDGVDAGGSYVFVQRWEHNLKQLNRMSVHDQEMVIGRTKEANEEIDGDERPETSHLTRVDLKEDGKGLKIVRQSLPYGTASGTHGLYFCAYCARLHNIEQQLLSMFGDTDGKRDAMLRFTKPVTGGYYFAPSLDKLMAL",
    "endpoint label": "total protein half-life in vivo",
    "recorded value": 3.36
  },
  {
    "item sequence": "MPSLSKEAALVHEALVARGLETPLRPPVHEMDNETRKSLIAGHMTEIMQLLNLDLADDSLMETPHRIAKMYVDEIFSGLDYANFPKITLIENKMKVDEMVTVRDITLTSTCEHHFVTIDGKATVAYIPKDSVIGLSKINRIVQFFAQRPQVQERLTQQILIALQTLLGTNNVAVSIDAVHYCVKARGIRDATSATTTTSLGGLFKSSQNTRHEFLRAVRHHN [P0A6T5]",
    "endpoint label": "total protein half-life in vivo",
    "recorded value": 1.5
  }
]
